All figures here come from ChEMBL document CHEMBL1149120.

- assayRemarks: Inhibition of Staphylococcus aureus 7,8-dihydroneopterin aldolase
pIC50: −log10 of the molar value.
measuredMetric: pIC50

Guide cases for pIC50, answers given:
molecule	measuredMetric	measurement
Nc1nc(O)c2nn(-c3cccc(C(=O)NCCCO)c3)nc2n1	pIC50	5.64
Nc1nc(O)c2nn(-c3cccc(C(=O)NC[C@H]4CCCC[C@@H]4O)c3)nc2n1	pIC50	6.49
Cn1c(N)nc(-c2ccccc2)c(Br)c1=O	pIC50	4.42
NC1=NC(=O)C2N=C(S)N=C2N1 (configuration not stated)	pIC50	6.00
Nc1nc(O)c2nn(-c3cccc(C(=O)NCc4ccc5c(c4)CCO5)c3)nc2n1	pIC50	6.26

(1) Nc1nc(O)c2nn(-c3cccc(C(=O)NC[C@@H]4CCCCC[C@H]4O)c3)nc2n1
(2) Nc1nc(O)c2nn(-c3cccc(C(=O)NCc4ccc(-c5ccccc5)cc4)c3)nc2n1
Between 1 and 2 , whose recorded pIC50 is greater? Record your answer as the label of the chosen record. 1

(P) Nc1nc(O)c2nn(-c3cccc(C(=O)NCc4ccc5c(c4)OCO5)c3)nc2n1
(Q) Nc1nc(O)c2nn(-c3cccc(C(=O)NCCCCO)c3)nc2n1
Between P and Q , whose recorded pIC50 is greater? Record your answer as the label of the chosen record. P

----------
- assayRemarks: Inhibition of Staphylococcus aureus 7,8-dihydroneopterin aldolase
measuredMetric: IC50 (nM)

CC(C)(CO)CNC(=O)c1cccc(-n2nc3nc(N)nc(O)c3n2)c1 730
Nc1nc(O)c2nn(-c3cccc(C(=O)NCC4(O)CCCCC4)c3)nc2n1 740
Nc1nc(O)c2nn(-c3cccc(C(=O)NCc4cc(C(F)(F)F)cc(C(F)(F)F)c4)c3)nc2n1 1000
Cc1nc(N)nc(O)c1N(Cc1ccc(Cl)c(Cl)c1)N=O 1300

(1) CCC(CO)(CO)CNC(=O)c1cccc(-n2nc3nc(N)nc(O)c3n2)c1
(2) Nc1nc(O)c2nn(-c3cccc(C(=O)NC[C@H]4CCCC[C@H]4O)c3)nc2n1
(3) Nc1nc(O)c2nn(-c3cccc(C(=O)NCc4ccc(Oc5ccccc5)cc4)c3)nc2n1
(4) Nc1nc(O)c2cc(N(C=O)Cc3ccc(Cl)c(Cl)c3)ccc2n1
Rank order required: IC50, descending. Please respond with the labels ordered as the question requires. 3, 1, 4, 2
(3: 22000 nM, 1: 950 nM, 4: 600 nM, 2: 410 nM)
